Measured Kd, listed per entry.
target-under-test: T1, PE9413, C-terminal biotinylated peptide mapping on Exon6 of the SCF molecule (SCF248) (C-terminal biotin)
T1 construct: also called C-terminal biotinylated PE9413; C-ter PE9413
T1 peptide: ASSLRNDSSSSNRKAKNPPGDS
test-protocol: yeast-displayed scFv, flow cytometry titration of biotinylated peptide
Just the number in nM, nothing appended.

Please review the entries below; each comes with its answer.
{"columns": ["binder", "result-number"],
 "data": [
  ["F64P scFv displayed on yeast (scFv, V domains shown, Aga2-anchored, VH-VL orientation; not shown: linker; SV5 tag) VH: QVQLVQSGAELKKPGSSVKISCKSSGYAFSSYYMNWVKQRPGQGLEWIGQIYPGDGDTHMNGKFKGKATLTADKSTSTAYMELSSLTSEDSAVYFCSSSNWVGSYWGQGTLVTVSS VL: DVVMTQSPLSLPVTLGQPASISCKSSQSLLESDGNTYLNWLQQRPGQSPRRLIYLVDRLDSGVPDRFSGSGSGTDFTLKISRVEAEDVGVYYCWQGTDLPQTFGGGTKVEIK", 6.69],
  ["B104P scFv displayed on yeast (scFv, V domains shown, Aga2-anchored, VH-VL orientation; not shown: linker; SV5 tag) VH: QVQLVQSGAELKKPGSSVKISCKSSGYAFSSQWMNWVKQRPGQGLEWIGQIYPDDGDTHYNDKFKGKATLTADKSTSTAYMELSSLTSEDSAVYFCSSSNWVGSYWGQGTLVTVSS VL: DVVMTQSPLSLPVTLGQPASISCKSSQSLLEADGNTYLNWLQQRPGQSPRRLIYLVDRLDSGVPDRFSGSGSGTDFTLKISRVEAEDVGVYYCWQGTDLPQTFGGGTKVEIK", 4.52],
  ["G24P scFv displayed on yeast (scFv, V domains shown, Aga2-anchored, VH-VL orientation; not shown: linker; SV5 tag) VH: QVQLVQSGAELKKPGSSVKISCKSSGYAFSSNWMNWVKQRPGQGLEWIGQIYPEDGDTHYNDKFKGKATLTADKSTSTAYMELSSLTSEDSAVYFCSSSNWVGSYWGQGTLVTVSS VL: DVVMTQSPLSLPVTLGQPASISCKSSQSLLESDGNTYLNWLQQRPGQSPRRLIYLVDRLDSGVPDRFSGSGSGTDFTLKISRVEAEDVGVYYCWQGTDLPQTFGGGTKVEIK", 5.79],
  ["B53P scFv displayed on yeast (scFv, V domains shown, Aga2-anchored, VH-VL orientation; not shown: linker; SV5 tag) VH: QVQLVQSGAELKKPGSSVKISCKSSGYAFSSQWMNWVKQRPGQGLEWIGQIYPEDGDIHYNGKFKGKATLTADKSTSTAYMELSSLTSEDSAVYFCSSSNWVGSYWGQGTLVTVSS VL: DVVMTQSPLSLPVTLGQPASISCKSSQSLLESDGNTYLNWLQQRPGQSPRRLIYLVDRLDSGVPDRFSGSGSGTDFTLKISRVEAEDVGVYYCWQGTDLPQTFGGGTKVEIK", 4.97]
]}

Next item in the queue.
Prompt: If you can, please state the reported Kd value of H83P scFv displayed on yeast (scFv, V domains shown, Aga2-anchored, VH-VL orientation; not shown: linker; SV5 tag) VH: QVQLVQSGAELKKPGSSVKISCKSSGYAFSSQWMNWVKQRPGQGLEWIGQIYPGDGDIHYNDKFKGKATLTADKSTSTAYMELSSLTSEDSAVYFCSSSNWVGSYWGQGTLVTVSS VL: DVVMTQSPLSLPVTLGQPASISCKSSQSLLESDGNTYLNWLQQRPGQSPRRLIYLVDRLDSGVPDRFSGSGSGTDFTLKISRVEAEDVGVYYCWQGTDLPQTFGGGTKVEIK .
Response: 4.08
